Tested on: HOP-62 NSCLC
run description: NCI tumour cell line growth inhibition, 48 h
assay endpoint: TGI

Worked set:
> print(dat)
                                   molecule  readout.value
1  Cc1ccc(-c2n[nH]c(=O)[nH]2)cc1[N+](=O)[O-]       > 100 µM
2  CCOC(=O)c1cc(/C=C/C(C)=C/C(=O)OC)n(C)c1C       > 100 µM
3      O=c1[nH]c(Nc2cccc(Cl)c2)nc2nc[nH]c12       > 100 µM
4  CC1(COS(=O)(=O)OCC2(C)COS(=O)(=O)OC2)COS(=O)(=O)OC1       > 100 µM
5  Nc1ccc2[nH]c(C(=O)N3CC(CCl)c4c3cc(N)c3ccccc43)cc2c1 (stereo unspecified)      0.0556 µM

Next molecule, TGI to be filled in.
Ask: Which TGI is listed for `CCOC(=O)COS(=O)(=O)C(F)(F)F` ?
Reply: > 100 µM

----------
Let's look at some compounds and their measured TGI.
Tested on: 786-0 renal
run description: NCI tumour cell line growth inhibition, 48 h
# value in µM; strip the unit string

Some solved cases for reference:
> print(dat)
                                   compound  readout.value
1  O=C(NCc1ccc(Cl)cc1)c1cc2sccc2nc1C(F)(F)F           39.8
2             Nc1ccc(S(=O)(=O)NCc2nccs2)cc1           77.3
3  O=C1C(Br)=C(c2ccccc2)S(=O)c2ccccc21 (stereo not drawn)           7.62

With those in mind, consider the next compound.
Ask: // TGI lookup, key: `Cc1ccc(NC(=O)Cn2c(Br)nc3c2c(=O)n(C)c(=O)n3C)cc1`
Reply: 5.68

----------
System: M14 melanoma
run description: NCI tumour cell line growth inhibition, 48 h
assay endpoint: TGI

Take a look at these entries with their results.
> print(dat)
                                   molecule  readout.value
1      Cc1cc(=O)oc2cc(O)c(CN(C)CC(=O)O)cc12       > 100 µM
2  CCN(CCNc1ccc(C)c2sc3ccccc3c(=O)c12)CC(C)(C)O        12.2 µM

Ask: Find the recorded TGI belonging to `C[C@]12CC[C@@H]3c4ccc(OC(=O)c5ccccc5)cc4CC[C@H]3[C@@H]1CC[C@@H]2Oc1c2ccccc2nc2ccccc12` and report it.
Reply: 15.9 µM

Ask: Lookup `CCCCOCn1c(=O)[nH]c(=O)c2cc(Br)ccc21`
Reply: > 100 µM

Ask: Do the same for C=C=C(C(=O)OC)S(=O)c1ccc([N+](=O)[O-])cc1[N+](=O)[O-] (stereo not given) please
Reply: > 69.5 µM

Ask: Record: CC(=O)OC1[C@H]2c3cc4c(cc3CN3CCC(=C[C@@H]1O)C23)OCO4 (stereo not given in full)
Reply: > 100 µM

Ask: Please answer likewise for CCOC(=O)[C@H]1Nc2ccc(OC)cc2C2c3ccccc3CC21 (stereo not given in full)
Reply: > 100 µM

----------
Test system: SW-620 colon
run description: NCI tumour cell line growth inhibition, 48 h
assay endpoint: TGI

Examples from the recorded data:
> print(dat)
                                    compound  readout.value
 1  O=[N+]([O-])c1ccc2c(c1)[O][Sn]([I])([I])[O]2       > 100 µM
 2                       c1nnc(NCNc2nncs2)s1       > 100 µM
 3             Nc1ccc(S(=O)(=O)NCc2nccs2)cc1       > 100 µM
 4  OCC1OC(n2cnc3c(/C=C(/O)c4ccccc4)ncnc32)C(O)C1O (stereo not drawn)       > 100 µM
 5  COc1ccc2c(c1)[n+]([O-])c(/C(C)=N/NC(=O)CC#N)c[n+]2[O-]        25.8 µM
 6  Cc1c2c(OCCCCN3CCN(c4ncccn4)CC3)nn(C)c(=O)c2c(C)n1-c1ccccc1        69.4 µM
 7  COc1ccc(/C=C2\C(=O)N(C(=O)Cc3ccccc3)N=C2C)cc1OC       > 100 µM
 8  c1cc(CNC2C3CCC(C3)C2c2c[nH]c3ccccc23)cc(CNC2C3CCC(C3)C2c2c[nH]c3ccccc23)c1 (stereo not drawn)       > 100 µM
 9  Cc1c(-c2ccccc2)c(C#N)c2nnc(C(N)=O)c(N)n12       > 100 µM
10  CN1C(=O)C(Cl)(C(Cl)(Cl)S(=O)(=O)O)C(=O)c2ccccc21 (stereo not drawn)       > 100 µM

Ask: Endpoint output: TGI of N#CC(NNC(=O)c1ccccc1O)c1cccc(O)c1 (stereo not drawn) . Value?
Reply: > 100 µM

Ask: Same for `Cc1nc(C(N)=S)sc1C(=O)C/C(=N/N)C(=O)Nc1cccc(Cl)c1C`
Reply: > 100 µM

Ask: Another compound: `CCOc1ccccc1NC(=O)CCc1nc(=S)[nH][nH]1`
Reply: > 100 µM
